- assay_procedure: in vitro
- Assay type: in vitro ADME, human
- assay_conditions: 500 μM peptide, 25% (v/v in H2O) human serum, 37 °C, RP-HPLC peak integration, monoexponential decay fit, 95% CI 368–2107; read-out: half-life (t1/2) in human serum
Where no end group is shown, it is not given here.
parameter_measured: half-life at 500 μM (h)

substance | unit_annotation | reading
WRRRYRRWRRRRRWRRRPRR-NH2 [vCPP2319] | h | 10.4

---

- assay_procedure: in vitro
- Format: in vitro ADME, human
- assay_conditions: 50 μM peptide, 25% (v/v in H2O) human serum, 37 °C, RP-HPLC peak integration, monoexponential decay fit, 95% CI 139–401; read-out: half-life (t1/2) in human serum
Where no end group is shown, it is not given here.

substance | unit_annotation | half-life at 50 μM
WRRRYRRWRRRRRWRRRPRR-NH2 [vCPP2319] | h | 3.45

Source: paper PMC10580319
